# Tested on: SN12C renal
# test.protocol: NCI tumour cell line growth inhibition, 48 h
recorded.endpoint: GI50

[[record]]
compound = "Cc1cncc2cccc(S(=O)(=O)N3CCCNC[C@@H]3C)c12"
recorded_endpoint = "GI50"
result = "24.8 µM"

[[record]]
compound = "CC(C)=CCCC1(C)C=Cc2c(ccc3c2[nH]c2cc(O)c(C)cc23)O1 (stereo not drawn)"
recorded_endpoint = "GI50"
result = "4.63 µM"

[[record]]
compound = "c1ccc2c(Nc3ccc4c(c3)OCO4)c3ccoc3nc2c1"
recorded_endpoint = "GI50"
result = "24.2 µM"

[[record]]
compound = "CCN(Cc1cccc(C)c1)c1ccc(CO)c(Cl)c1"
recorded_endpoint = "GI50"
result = "12.1 µM"

[[record]]
compound = "S=C1NC2=C(CCOc3c2ccc2ccccc32)C(c2ccc(Cl)cc2)N1 (stereo not drawn)"
recorded_endpoint = "GI50"
result = "25.8 µM"

[[record]]
compound = "O=C(Nc1ccc(I)cc1F)c1cc(F)ccc1O"
recorded_endpoint = "GI50"
result = "0.354 µM"

[[record]]
compound = "COc1ccc(OC)c(/C=C/C(=O)c2ccc(SC)cc2)c1"
recorded_endpoint = "GI50"
result = "17.2 µM"

[[record]]
compound = "COc1ccc(Nc2ccnc3cc(Cl)ccc23)cc1CN(CCCl)CCCl"
recorded_endpoint = "GI50"
result = "1.24 µM"

[[record]]
compound = "O=C(Nc1ccc(Oc2cccc(Cl)c2)c(Cl)c1)c1cccnc1"
recorded_endpoint = "GI50"
result = "3.74 µM"

[[record]]
compound = "CCn1c(-c2nonc2N)nc2c(C#CC(C)(C)O)ncc(OCC3CCNCC3)c21"
recorded_endpoint = "GI50"
result = "9.17 µM"

[[record]]
compound = "CCCCOc1nc2ccccc2cc1C1CNC(=O)c2ccccc2N1 (stereo not drawn)"
recorded_endpoint = "GI50"
result = "3.77 µM"

[[record]]
compound = "O=C(CN1CCN(c2cc3c(cc2F)c(=O)c(C(=O)O)cn3C2CC2)CC1)Nc1ccc(C(=O)/C=C/c2ccccc2)cc1"
recorded_endpoint = "GI50"
result = "3.02 µM"

[[record]]
compound = "CCOC(=O)CCC(NC(=O)c1ccc(Nc2nc3cc(N)cc(N)c3nc2-c2ccccc2)cc1)C(=O)OCC (stereo not drawn)"
recorded_endpoint = "GI50"
result = "26.2 µM"

[[record]]
compound = "Cc1cccc(Cc2cnc(NC(=O)/C=C/c3ccco3)s2)c1"
recorded_endpoint = "GI50"
result = "0.073 µM"

[[record]]
compound = "c1ccc(-c2nn(-c3ccccc3)[n+](-c3ccccc3-c3ccccc3)n2)cc1"
recorded_endpoint = "GI50"
result = "1.82 µM"

[[record]]
compound = "CCC[CH2][Sn]1([CH2]CCC)[O]N=Cc2ccccc2[O]1"
recorded_endpoint = "GI50"
result = "1.27 µM"

[[record]]
compound = "CCc1cc(Nc2nccc(-c3c(-c4ccc(OC)c(C(=O)Nc5c(F)cccc5F)c4)nc4ccccn34)n2)c(OC)cc1N1CCC(N2CCN(S(C)(=O)=O)CC2)CC1"
recorded_endpoint = "GI50"
result = "> 100 µM"

[[record]]
compound = "COc1ccc(C(=O)C(CN(C)C)c2ccccc2)cc1 (stereo not drawn)"
recorded_endpoint = "GI50"
result = "3.56 µM"


---

Each record here notes measured TGI.
# Tested on: NCI-H522 lung
# test.protocol: NCI tumour cell line growth inhibition, 48 h
recorded.endpoint: TGI

[[record]]
compound = "CC1(C)CC(=O)C=C(NC(=O)c2ccccc2)C1"
recorded_endpoint = "TGI"
result = "> 100 µM"

[[record]]
compound = "O=C1NC(=Nc2ccccc2Cl)SC1C(=O)Nc1ccc([N+](=O)[O-])cc1[N+](=O)[O-] (stereo not given)"
recorded_endpoint = "TGI"
result = "> 100 µM"

[[record]]
compound = "O=c1[nH]c(=O)c2c([nH]1)[nH]c1ccccc12"
recorded_endpoint = "TGI"
result = "> 100 µM"

[[record]]
compound = "C[S+](C)C1(c2ccccc2)C(=O)c2ccccc2C1=O"
recorded_endpoint = "TGI"
result = "> 68.7 µM"

[[record]]
compound = "Nc1nn2cc(-c3ccccc3)[n+](CC(=O)c3ccccc3)c2s1"
recorded_endpoint = "TGI"
result = "26.1 µM"

[[record]]
compound = "CC(C)(C)C1=CC(O)(c2c3ccccc3c(C3(O)C=C(C(C)(C)C)C(=O)C(C(C)(C)C)=C3)c3ccccc23)C=C(C(C)(C)C)C1=O"
recorded_endpoint = "TGI"
result = "> 100 µM"

[[record]]
compound = "Cn1cc(C2=C(c3cccc(Cl)c3)C(=O)NC2=O)c2ccccc21"
recorded_endpoint = "TGI"
result = "> 25 µM"

[[record]]
compound = "CCC[CH2][Sn]1([CH2]CCC)[O]N=Cc2ccccc2[O]1"
recorded_endpoint = "TGI"
result = "0.229 µM"

[[record]]
compound = "NS(=O)(=O)c1ccc(NS(=O)(=O)c2ccc(NC(=O)N(c3ccccc3)c3ccccc3)cc2)cc1"
recorded_endpoint = "TGI"
result = "> 100 µM"

[[record]]
compound = "O=C1/C(=C/c2ccccc2)CN(C(=O)Oc2ccccc2)C/C1=C\\c1ccccc1"
recorded_endpoint = "TGI"
result = "> 100 µM"


---

# Tested on: ACHN renal
# test.protocol: NCI tumour cell line growth inhibition, 48 h; in the data active = GI50 below about 0.43 µM; inactive = the rest
Outcomes: y for active, n for inactive

[[record]]
compound = "Cn1cc(C2=C(c3cccc(Cl)c3)C(=O)NC2=O)c2ccccc21"
assay_target = "ACHN renal"
assigned_category = "n"

[[record]]
compound = "Nc1cc2ccncc2c2ccccc12"
assay_target = "ACHN renal"
assigned_category = "n"

[[record]]
compound = "O=C(N/N=C\\c1cc(Br)cc(Br)c1O)N/N=C/c1cc(Br)cc(Br)c1O"
assay_target = "ACHN renal"
assigned_category = "n"

[[record]]
compound = "C[C@@H]1CC[C@H]2C(CN(C)CC3=C(C(F)(F)F)O[C@@H]4O[C@@]5(C)CC[C@H]6[C@H](C)CC[C@@H]3[C@@]46OO5)=C(C(F)(F)F)O[C@@H]3O[C@@]4(C)CC[C@@H]1[C@]32OO4"
assay_target = "ACHN renal"
assigned_category = "n"

[[record]]
compound = "Cc1cccc(Cc2cnc(NC(=O)/C=C/c3ccco3)s2)c1"
assay_target = "ACHN renal"
assigned_category = "y"

[[record]]
compound = "CCN(CC)c1ccc(/C=C2/NC(=O)NC2=O)cc1"
assay_target = "ACHN renal"
assigned_category = "n"

[[record]]
compound = "COc1ccc2c(c1)/C(=N/OC(C)=O)c1c-2c(Nc2ccc(/C(C)=N/OC(C)=O)cc2)nc2ccccc12"
assay_target = "ACHN renal"
assigned_category = "n"

[[record]]
compound = "CC(=O)[O-].CC(=O)[O-].CC(=O)[O-].CC(=O)[O-].CO.CO.CO.[Rh+2].[Rh+2].c1ccc(-c2ccccn2)nc1"
assay_target = "ACHN renal"
assigned_category = "n"

[[record]]
compound = "COC(=O)[C@@H](C)C[C@H](Cc1ccccc1)NC(=O)c1csc([C@@H](C[C@H](C(C)C)N(C)C(=O)[C@@H](NC(=O)CN(C)C)C2CC2)OC(C)=O)n1"
assay_target = "ACHN renal"
assigned_category = "y"

[[record]]
compound = "N#CCCCCCn1c2ccccc2c2c3c(c4c5ccccc5[nH]c4c21)C(=O)N(O)C3=O"
assay_target = "ACHN renal"
assigned_category = "n"

[[record]]
compound = "Cc1cncc2cccc(S(=O)(=O)N3CCCNC[C@@H]3C)c12"
assay_target = "ACHN renal"
assigned_category = "n"

[[record]]
compound = "CCOC(=O)CCC(NC(=O)c1ccc(Nc2nc3cc(N)cc(N)c3nc2-c2ccccc2)cc1)C(=O)OCC (stereo unspecified)"
assay_target = "ACHN renal"
assigned_category = "n"

[[record]]
compound = "COc1ccc(OC)c(/C=C/C(=O)c2ccc(SC)cc2)c1"
assay_target = "ACHN renal"
assigned_category = "n"

[[record]]
compound = "CCCCOc1nc2ccccc2cc1C1CNC(=O)c2ccccc2N1 (stereo unspecified)"
assay_target = "ACHN renal"
assigned_category = "n"

[[record]]
compound = "S=C1NC2=C(CCOc3c2ccc2ccccc32)C(c2ccc(Cl)cc2)N1 (stereo unspecified)"
assay_target = "ACHN renal"
assigned_category = "n"

[[record]]
compound = "COC(=O)C1=C(C)NC(C)=C(C(=O)OC)C1c1ccccc1[N+](=O)[O-]"
assay_target = "ACHN renal"
assigned_category = "n"


---

# System: HCC-2998 colon
# test.protocol: NCI tumour cell line growth inhibition, 48 h
Let's look at some compounds and their measured TGI.
recorded.endpoint: TGI (µM)

[[record]]
compound = "COc1ccc2c(c1)/C(=N/OC(C)=O)c1c-2c(Nc2ccc(/C(C)=N/OC(C)=O)cc2)nc2ccccc12"
recorded_endpoint = "TGI"
op = "="
recorded_number = 59

[[record]]
compound = "C=C1C(=O)O[C@H]2[C@H]1CC/C(COC(=O)c1ccc(Br)cc1)=C\\CC[C@@]1(C)O[C@@H]21"
recorded_endpoint = "TGI"
op = "="
recorded_number = 4.27

[[record]]
compound = "Cc1cnc2[nH]c(-c3sccc3C)cc(=O)c2c1"
recorded_endpoint = "TGI"
op = "="
recorded_number = 96.8

[[record]]
compound = "CC(=O)O[C@H]1CC[C@]2(C=O)[C@H]3CC[C@]4(C)[C@@H](C5=CC(=O)OC5)CC[C@]4(O)[C@@H]3CC[C@]2(O)C1"
recorded_endpoint = "TGI"
op = "="
recorded_number = 1.33

[[record]]
compound = "Cc1c(-c2ccnc(N)n2)c2c(n1-c1ccccc1)C(=O)c1ccccc1C2=O"
recorded_endpoint = "TGI"
op = "="
recorded_number = 46.5

[[record]]
compound = "COc1ccc(C(OCC2OC(n3ccc(Oc4c(F)c(F)c(F)c(F)c4F)nc3=O)CC2OP(OCCC#N)N(C(C)C)C(C)C)(c2ccccc2)c2ccc(OC)cc2)cc1 (stereo not given)"
recorded_endpoint = "TGI"
op = ">"
recorded_number = 100

[[record]]
compound = "C/C(=N/NC(=O)c1ccccc1Nc1ccccc1C(=O)N/N=C(\\C)c1ccc(C)cc1)c1ccc(C)cc1"
recorded_endpoint = "TGI"
op = ">"
recorded_number = 100

[[record]]
compound = "N#Cc1c(NC(=S)Nc2ccccc2)sc2c1CCCC2"
recorded_endpoint = "TGI"
op = ">"
recorded_number = 100

[[record]]
compound = "Nc1cc2ccncc2c2ccccc12"
recorded_endpoint = "TGI"
op = "="
recorded_number = 40.4

[[record]]
compound = "Cc1cccc(Cc2cnc(NC(=O)/C=C/c3ccco3)s2)c1"
recorded_endpoint = "TGI"
op = ">"
recorded_number = 100

[[record]]
compound = "C(=N\\Nc1nnc(-c2nnc(N/N=C/c3ccccc3)o2)o1)/c1ccccc1"
recorded_endpoint = "TGI"
op = ">"
recorded_number = 10

[[record]]
compound = "CC(C)C(NCc1c2ccccc2nc2ccccc12)C(=O)O (stereo not given)"
recorded_endpoint = "TGI"
op = ">"
recorded_number = 100

[[record]]
compound = "O=C(N/N=C\\c1cc(Br)cc(Br)c1O)N/N=C/c1cc(Br)cc(Br)c1O"
recorded_endpoint = "TGI"
op = "="
recorded_number = 32.5

[[record]]
compound = "NC(=O)c1nnc2c(F)cccc2c1N"
recorded_endpoint = "TGI"
op = ">"
recorded_number = 100

[[record]]
compound = "CCOC(=O)CCN1C(=O)c2c(NC(=O)C(=O)O)cccc2S1(=O)=O"
recorded_endpoint = "TGI"
op = ">"
recorded_number = 100

[[record]]
compound = "CCN(CC)Cc1cc(Nc2c3ccc(Cl)cc3nc3c(C)cccc23)ccc1O"
recorded_endpoint = "TGI"
op = "="
recorded_number = 2.47

[[record]]
compound = "CN1CCN(C2CC(=O)c3c(Cl)sc(Cl)c32)CC1 (stereo not given)"
recorded_endpoint = "TGI"
op = "="
recorded_number = 24.6

[[record]]
compound = "COc1ccc(Nc2ccnc3cc(Cl)ccc23)cc1CN(CCCl)CCCl"
recorded_endpoint = "TGI"
op = "="
recorded_number = 4.54

[[record]]
compound = "Cc1nc2cccc(F)c2c(=O)n1-c1nnc(C2CC2)s1"
recorded_endpoint = "TGI"
op = ">"
recorded_number = 10

[[record]]
compound = "CC(=O)[O-].CC(=O)[O-].CC(=O)[O-].CC(=O)[O-].CO.CO.CO.[Rh+2].[Rh+2].c1ccc(-c2ccccn2)nc1"
recorded_endpoint = "TGI"
op = ">"
recorded_number = 100

